assay: CHI Log D procedure; assay type: physicochemical; details: pH 7.4
Measured CHI Log D of individual entries
Observation Type: CHI Log D

[[record]]
compound = "CC(=O)N1CCC[C@]12CC=CCCCC1(CCCC=CCCCCCC[C@@](C)(C(=O)N[C@@H](Cc3ccccc3)C(=O)N[C@@H](Cc3csc4ccccc34)C(=O)N[C@@H](C(N)=O)[C@H](C)O)NC(=O)[C@H](CC(N)=O)NC(=O)[C@H](Cc3ccccc3)NC(=O)[C@H](C)NC(=O)[C@H](C)NC(=O)[C@H](CCC(=O)O)NC(=O)[C@H](CC(=O)O)NC1=O)NC(=O)[C@H](CC(C)C)NC(=O)[C@H](CC(=O)O)NC2=O (stereo partly drawn) [I-754]"
recorded_result = 2.666

[[record]]
compound = "CC(=O)N1CCC[C@]12CC=CCCCC1(CCCC=CCCCOC(=O)N3CC[C@@](C(=O)N[C@@H](Cc4ccccc4C(F)(F)F)C(=O)N[C@@H](Cc4csc5ccccc45)C(=O)N[C@@H](CCC(N)=O)C(N)=O)(C3)NC(=O)[C@H](CC(N)=O)NC(=O)[C@H](Cc3ccccc3)NC(=O)[C@H](C)NC(=O)[C@H](C)NC(=O)[C@H](CN(CC(=O)O)CC(F)(F)F)NC(=O)[C@H](CC(=O)O)NC1=O)NC(=O)[C@H](CC(C)(C)C)NC(=O)[C@H](CC(=O)O)NC2=O (stereo partly drawn) [I-928]"
recorded_result = 2.38

[[record]]
compound = "CC(=O)N1CCC[C@]12CC=CCCCC1(CCCC=CCCCCCC[C@@](C)(C(=O)N[C@@H](Cc3ccccc3)C(=O)N[C@@H](Cc3csc4ccccc34)C(=O)N[C@@H](Cc3c[nH]cn3)C(N)=O)NC(=O)[C@H](CCC(N)=O)NC(=O)[C@H](Cc3ccccc3)NC(=O)[C@H](C)NC(=O)[C@H](C)NC(=O)[C@H](CC(=O)O)NC(=O)[C@H](CC(=O)O)NC1=O)NC(=O)[C@H](C)NC(=O)[C@H](CC(=O)O)NC2=O (stereo partly drawn) [I-361]"
recorded_result = 2.058


---

Measured pIC50 of individual entries
biological target: full-length beta-Catenin (Uniprot ID P35222) (Homo sapiens, UniProt P35222); construct: 10 nM full-length beta-Catenin (Uniprot ID P35222); test: Fluorescence polarization IC50 (beta-catenin / 5FAM-TCF4 10-53 competition); type: binding; conditions: read-out: beta-Catenin FP IC50
Sequence (P35222 whole entry): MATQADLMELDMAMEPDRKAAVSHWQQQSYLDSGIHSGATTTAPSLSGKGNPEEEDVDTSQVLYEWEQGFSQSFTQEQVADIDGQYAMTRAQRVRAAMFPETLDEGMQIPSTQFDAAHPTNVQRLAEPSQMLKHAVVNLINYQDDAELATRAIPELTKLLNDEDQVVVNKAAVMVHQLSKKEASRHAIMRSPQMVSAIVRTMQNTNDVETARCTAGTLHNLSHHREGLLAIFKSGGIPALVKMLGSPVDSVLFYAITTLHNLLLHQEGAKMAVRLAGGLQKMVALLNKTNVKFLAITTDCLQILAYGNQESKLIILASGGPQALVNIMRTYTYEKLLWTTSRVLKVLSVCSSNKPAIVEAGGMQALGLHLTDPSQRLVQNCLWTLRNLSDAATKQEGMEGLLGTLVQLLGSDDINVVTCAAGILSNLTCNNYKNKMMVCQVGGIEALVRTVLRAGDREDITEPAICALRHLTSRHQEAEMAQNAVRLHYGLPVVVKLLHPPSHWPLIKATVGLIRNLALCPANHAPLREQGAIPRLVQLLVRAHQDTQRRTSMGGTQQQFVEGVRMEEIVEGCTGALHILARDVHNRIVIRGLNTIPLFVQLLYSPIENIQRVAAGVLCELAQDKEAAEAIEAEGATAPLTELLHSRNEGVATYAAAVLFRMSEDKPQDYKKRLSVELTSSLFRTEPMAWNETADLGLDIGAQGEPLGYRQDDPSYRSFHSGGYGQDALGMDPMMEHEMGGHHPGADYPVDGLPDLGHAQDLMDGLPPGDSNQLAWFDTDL
pIC50: −log10 of the molar value.
Observation Type: pIC50

[[record]]
compound = "CC(=O)N1CCC[C@]12CC=CCCCC1(CCCC=CCCCOC(=O)N3CC[C@@](C(=O)N[C@@H](Cc4ccccc4Cl)C(=O)N[C@@H](Cc4csc5ccccc45)C(=O)N[C@@H](CCC(N)=O)C(N)=O)(C3)NC(=O)[C@H](CC(N)=O)NC(=O)[C@H](Cc3ccccc3)NC(=O)[C@H](CCCCNC(C)C)NC(=O)[C@H](C)NC(=O)[C@H](CC(=O)O)NC(=O)[C@H](CC(=O)O)NC1=O)NC(=O)[C@H](CC(C)(C)C)NC(=O)[C@H](CC(=O)O)NC2=O (some centres unmarked) [I-1132]"
recorded_result = 7.68

[[record]]
compound = "CC(=O)N1CCC[C@]12CC=CCCCC1(CCCC=CCCCOC(=O)N3CC[C@@](C(=O)N[C@@H](Cc4ccsc4)C(=O)N[C@@H](Cc4csc5ccccc45)C(=O)N[C@@H](CO)C(N)=O)(C3)NC(=O)[C@H](CC(N)=O)NC(=O)[C@H](Cc3ccccc3)NC(=O)[C@H](C)NC(=O)[C@H](C)NC(=O)[C@H](CN(CC(=O)O)CC(F)(F)F)NC(=O)[C@H](CC(=O)O)NC1=O)NC(=O)[C@H](CC(C)(C)C)NC(=O)[C@H](CC(=O)O)NC2=O (some centres unmarked) [I-940]"
recorded_result = 5.76

[[record]]
compound = "CCCC(=O)NCCCC[C@@H]1NC(=O)[C@H](C)NC(=O)[C@H](CC(=O)O)NC(=O)[C@H](CC(=O)O)NC(=O)C2(CCCC=CCCCOC(=O)N3CC[C@@](C(=O)N[C@@H](Cc4ccsc4)C(=O)N[C@@H](Cc4csc5ccccc45)C(=O)N[C@@H](CCC(N)=O)C(N)=O)(C3)NC(=O)[C@H](CC(N)=O)NC(=O)[C@H](Cc3ccccc3)NC1=O)CCCC=CC[C@]1(CCCN1C(C)=O)C(=O)N[C@@H](CC(=O)O)C(=O)N[C@@H](CC(C)(C)C)C(=O)N2 (some centres unmarked) [I-897]"
recorded_result = 7.80

[[record]]
compound = "CC(=O)N1CCC[C@]12CC=CCCCC1(CCCC=CCCCOC(=O)N3CC[C@@](C(=O)N[C@@H](Cc4ccccc4)C(=O)N[C@@H](Cc4csc5ccccc45)C(=O)N[C@@H](CCC(N)=O)C(N)=O)(C3)NC(=O)[C@H](CC(C)C)NC(=O)[C@H](Cc3ccc(C(F)(F)F)cc3)NC(=O)[C@H](C)NC(=O)[C@H](C)NC(=O)[C@H](CC(=O)O)NC(=O)[C@H](CC(=O)O)NC1=O)NC(=O)[C@H](CC(C)(C)C)NC(=O)[C@H](CC(=O)O)NC2=O (some centres unmarked) [I-1129]"
recorded_result = 7.41

[[record]]
compound = "CC(=O)N1CCC[C@]12CC=CCCCC1(CCCC=CCCCOC(=O)N3CC[C@@](C(=O)N[C@@H](Cc4ccsc4)C(=O)N[C@@H](Cc4csc5ccccc45)C(=O)N[C@@H](CCC(N)=O)C(N)=O)(C3)NC(=O)[C@H](CC(N)=O)NC(=O)[C@H](Cc3ccccc3)NC(=O)[C@H](CCCCNC(=O)CCc3cccc4ccccc34)NC(=O)[C@H](C)NC(=O)[C@H](CC(=O)O)NC(=O)[C@H](CC(=O)O)NC1=O)NC(=O)[C@H](CC(C)(C)C)NC(=O)[C@H](CC(=O)O)NC2=O (some centres unmarked) [I-884]"
recorded_result = 7.85


---

target: full-length beta-Catenin (Uniprot ID P35222) (Homo sapiens, UniProt P35222); construct: 10 nM full-length beta-Catenin (Uniprot ID P35222); experiment: Fluorescence polarization IC50 (beta-catenin / 5FAM-TCF4 10-53 competition); assay type: binding; details: fluorescence polarization; read-out: beta-Catenin FP IC50
Hi! Just check whether IC50 is below 0.05 µM. Below gives TRUE, equal or above gives FALSE.

[[record]]
compound = "CC(=O)N1CCC[C@]12CC=CCCCC1(CCCC=CCCCOC(=O)N3CC[C@@](C(=O)N[C@@H](Cc4ccsc4)C(=O)N[C@@H](Cc4csc5ccccc45)C(=O)N[C@H](C(N)=O)C(C)C)(C3)NC(=O)[C@H](CC(N)=O)NC(=O)[C@H](Cc3ccccc3)NC(=O)[C@H](C)NC(=O)[C@H](C)NC(=O)[C@H]([C@@H](C)O)NC(=O)[C@H](CC(N)=O)NC1=O)NC(=O)[C@H](CC(C)(C)C)NC(=O)[C@H](CC(=O)O)NC2=O (stereo partly shown) [I-1878]"
assigned_class = "FALSE"

[[record]]
compound = "CC(=O)N1CCC[C@]12CC=CCCCC1(CCCC=CCCCCCC[C@@](C)(C(=O)N[C@@H](Cc3ccccc3)C(=O)N[C@@H](Cc3csc4ccccc34)C(N)=O)NC(=O)[C@H](CC(N)=O)NC(=O)[C@H](Cc3ccccc3)NC(=O)[C@H](C)NC(=O)[C@H](C)NC(=O)[C@H](CCC(=O)O)NC(=O)[C@H](CC(=O)O)NC1=O)NC(=O)[C@H](CC(C)C)NC(=O)[C@H](CC(=O)O)NC2=O (stereo partly shown) [I-624]"
assigned_class = "FALSE"

[[record]]
compound = "CC(=O)N1CCC[C@]12CC=CCCCC1(CCCC=CCCCOC(=O)N3CC[C@@](C(=O)N[C@@H](Cc4ccsc4)C(=O)N[C@@H](Cc4csc5ccccc45)C(=O)N[C@@H](CCC(N)=O)C(N)=O)(C3)NC(=O)[C@H](CC(C)C)NC(=O)[C@H](Cc3ccccc3)NC(=O)[C@H](C)NC(=O)[C@H](C)NC(=O)[C@H](CC(=O)O)NC(=O)[C@H](CCO)NC1=O)NC(=O)[C@H](CC(C)(C)C)NC(=O)[C@H](CC(=O)O)NC2=O (stereo partly shown) [I-1215]"
assigned_class = "FALSE"

[[record]]
compound = "CC(=O)N1CCC[C@]12CC=CCCCC1(CCCC=CCCCOC(=O)N3CC[C@@](C(=O)N[C@@H](Cc4ccsc4)C(=O)N[C@@H](Cc4csc5ccccc45)C(=O)N[C@@H](CCC(N)=O)C(N)=O)(C3)NC(=O)[C@H](CC(N)=O)NC(=O)[C@H](Cc3ccccc3)NC(=O)[C@H](C)NC(=O)[C@H](C)NC(=O)[C@H](CC(=O)O)NC(=O)[C@H](CC(=O)O)NC1=O)NC(=O)[C@H](CC(C)C)NC(=O)[C@H](CC(=O)O)NC2=O (stereo partly shown) [I-688]"
assigned_class = "TRUE"

[[record]]
compound = "CC(=O)N1CCC[C@]12CC=CCCCC1(CCCC=CCCCOC(=O)N3CC[C@@](C(=O)N[C@@H](CC4CCCC4)C(=O)N[C@@H](Cc4csc5ccccc45)C(=O)N[C@@H](CCC(N)=O)C(N)=O)(C3)NC(=O)[C@H](CC(C)C)NC(=O)[C@H](Cc3ccccc3)NC(=O)[C@H](C)NC(=O)[C@H](C)NC(=O)[C@H](CN(CC(=O)O)CC(F)(F)F)NC(=O)[C@H](CC(=O)O)NC1=O)NC(=O)[C@H](CC(C)(C)C)NC(=O)[C@H](CC(=O)O)NC2=O (stereo partly shown) [I-1703]"
assigned_class = "TRUE"

[[record]]
compound = "CC(=O)N[C@]12CCN(C1)C(=O)OCC=CCCCC1(CCCC=CCCCOC(=O)N3CC[C@@](C(=O)N[C@@H](Cc4ccccc4C(F)(F)F)C(=O)N[C@@H](Cc4csc5ccccc45)C(=O)N[C@@H](CCC(N)=O)C(N)=O)(C3)NC(=O)[C@H](CC(C)C)NC(=O)[C@H](Cc3ccccc3)NC(=O)[C@H](C)NC(=O)[C@H](C)NC(=O)[C@H](Cc3cccc(C(=O)O)c3)NC(=O)[C@H](CC(=O)O)NC1=O)NC(=O)[C@H](CC(C)(C)C)NC(=O)[C@H](CC(=O)O)NC(=O)[C@H](CCC(=O)O)NC2=O (stereo partly shown) [I-2569]"
assigned_class = "FALSE"

[[record]]
compound = "CC(=O)N1CCC[C@]12CC=CCCCC1(CCCC=CCCCOC(=O)N3CC[C@@](C(=O)N[C@@H](Cc4ccccc4)C(=O)N[C@@H](Cc4cccc5ccccc45)C(=O)N[C@@H](CO)C(N)=O)(C3)NC(=O)[C@H]([C@@H](C)O)NC(=O)[C@H](Cc3ccccc3)NC(=O)[C@H](C)NC(=O)[C@H](C)NC(=O)[C@H]([C@@H](C)O)NC(=O)[C@H](CC(=O)O)NC1=O)NC(=O)[C@H](CC(C)(C)C)NC(=O)[C@H](CC(=O)O)NC2=O (stereo partly shown) [I-1272]"
assigned_class = "FALSE"

[[record]]
compound = "CC(=O)N1CCC[C@]12CC=CCCCC1(CCCC=CCCCOC(=O)N3CC[C@@](C(=O)N[C@@H](Cc4ccsc4)C(=O)N[C@@H](Cc4csc5ccccc45)C(=O)N[C@@H](CCC(N)=O)C(N)=O)(C3)NC(=O)[C@H](CC(N)=O)NC(=O)[C@H](Cc3ccccc3)NC(=O)[C@H](C)NC(=O)[C@H](C)NC(=O)[C@H](CCC(=O)O)NC(=O)[C@H](CC(=O)O)NC1=O)NC(=O)[C@H](CC(C)(C)C)NC(=O)[C@H](CC(=O)O)NC2=O (stereo partly shown) [I-691]"
assigned_class = "TRUE"

[[record]]
compound = "CC(=O)N1CCC[C@]12CC=CCCCC1(CCCC=CCCCOC(=O)N3CC[C@@](C(=O)N[C@@H](Cc4ccccc4)C(=O)N[C@@H](Cc4csc5ccccc45)C(=O)N[C@@H](CCC(N)=O)C(N)=O)(C3)NC(=O)[C@H](CC(C)C)NC(=O)[C@H](Cc3ccccc3)NC(=O)[C@H](C)NC(=O)[C@H](CCCCNC(C)C)NC(=O)[C@H](CCCCN)NC(=O)[C@H](CC(=O)O)NC1=O)NC(=O)[C@H](C)NC(=O)[C@H](CC(N)=O)NC2=O (stereo partly shown) [I-1386]"
assigned_class = "FALSE"

